- Test system: gene editing with dCas9
- procedure.details: Screen of 322 new SSAP proteins, gene editing activity with dCas9 (Table 5)
- Format: cell-based
- condition.set: normalized
Output Fulfilled for records whose dCas9 with SSAP activity (normalized) is lower than -0.7, Not fulfilled for records at or above -0.7.

- molecule: "SSAP_170: SEQ ID NO: 339; Dorea longicatena (protein, listed as Dorea longicatena) TVGKTDEIKQELARKVENTKAGTKLKKSMSIADMIKVMEPQIKKALPEVITPERFTRMALSALNTTPKLNECTPMSFLAALMNAAQLGLEPNTPLGQAFLIPYNNKGKMECQFQLGYKGLIDLSYRNPNMQIITAHTVYENDEFEYELGLNPCLDHRPTLGERGEIRLFYGLFKLTNGGFGFEVMSKTAMDDFAKEYSKAFDSSFSPWRTNYESMALKTIIKKALKYAPLKSEFRNALSTDETIKNEIGADMSEINSENIFDTVYQEECA"
  class.label: "Fulfilled"
- molecule: "SSAP_162: SEQ ID NO: 331; Helcococcus sueciensis (protein, listed as Helcococcus sueciensis) AQAKELLENKTNNTVKKSEKQTMENLLTLMADEIKKALPENVKSERFRRIALTAFNGNKDLQQCEPTSFLAAMMQSAQLGLEPNTPLGQAYLIPYNNSKKNIKEVQFQVGYKGMLDLAHRTNQYKNIQANIVYEKDEFDIEYGLNPKLKHIPNMKEDRGQAIGYYAVYNLINGGQGFEYMTRAEVEKHAQKFSKTYRNGPWQTDFDEMAKKTVLKKVLKYAPMSTELQEATAIDERVVNEENIKSKNEDKFVDVDWSYVDDVEEDVIE"
  class.label: "Fulfilled"
- molecule: "SSAP_239: SEQ ID NO: 408; Paenibacillus polymyxa (protein, listed as Paenibacillus polymyxa) PDKLLVIHDNLNKMLDEKSEAMPTSFNKTRFLQNCMAVLQDTKDIEQCDAKSVARTMLKGAFLGLDFFNKECYAIPYNENIGTKNKPRWIKSLQFQTDYKGEKKLAKKYSTRRVKDIYAKLVRDGDDFREEIESGQPTINFRPLPFNDGIIRGAFAVALFEDGGMIYETMSLKEIEKTRDDYSKQSTGKAWTKSPGEMYKKTVLRRLCKNIELDFDTIEQAQAFEDSSDFDMNKELKPQQQSPLNPNTTIIDAEYEEIKEEPADGPEQE"
  class.label: "Not fulfilled"
- molecule: "SSAP_63: SEQ ID NO: 232 (protein) SELQQAAQGQADAGPVQVIYSHAKEIQNVLAKGTDMDRWLQMARLAVMRDPNLVNAAKRDPGSLMQAMLDCAEKGHIPGTEDYYLVPRKGGIQGMESWKGIAKRIMRSGRYQSIVAEVVYEGEDFDFNPNTMDRPVHQIKYMARTSGQPVLSYAYAVDHEGKPSTIAVADPRYIAKVKANSKGTVWADWDEAMYKKTAVKMLVDYVDTSSTDRRGVSTVQVDGPVGTFIDGVLEIEGGDQ"
  class.label: "Fulfilled"
- molecule: "SSAP_219: SEQ ID NO: 388; Streptomyces uncialis (protein, listed as Streptomyces uncialis) SQISTAIATRDNGPAAVVEQYRESLALVMPSHLQQRVGAWIRNTQGLLRRDSKLMEAAQNDVGQFVAVLMDAARLGLEPGTEHYYLVPRWNNKKRATEVTGVRGYQGEIELMYRAGAVSSVIVEVVHTQDQFRFRPGRDARPVHDIDWDLEDRGSLRLVYAYAVMKDGATSKVVVLNRQHIAAARAKSDSAAKDWSPWNTDEEAMWLKTAAHRLTKWVPTSAEYLREQIRAQVAVESEQRPEPLPVAPPPAPGTVDADPDDEGPIDGELVD"
  class.label: "Fulfilled"
- molecule: "SSAP_242: SEQ ID NO: 411; Lactococcus sp. S-13 (protein, listed as Lactococcus sp.) SNQITKTQQTLKSPEVKAKFEEVLGKKADGFVASLLSVVGNSNLKTVEANSVMTAAMKAATLDLPIEPSLGFAYVIPYGREAQFQIGYKGFIQLALRSGQLTGLNCGIVYESQFVSYDPLFEELELDFTQQASGDAVGYFASMKLANGFKKVTYWSKEQVLAHKKKFVKSANGPWRDHFDAMAQKTVLKAMLTKYAPASIESKMIQTAITEDDSERFENAKDVTPDEPVISIDEPVTSEVSQNESSAESQEQFPEDEVEELFPIGKS"
  class.label: "Not fulfilled"
- molecule: "SSAP_143: SEQ ID NO: 312; Staphylococcus chromogenes (protein, Staphylococcus chromogenes) ANAKEFKKQMNSKNEVAETNNAPQKAKGPRQQVSDLLDRMAPEIQKALPNNMSAERMARIAMTAVSSNPKLLECDPKSFIGALMQASQIGLEPNTALGQAYLIPYGNQVQLQLSYLGLIELATRTGQYKAIYAHEVYKDDEFSYEYGLYKNLIHKPVDDPNGEPIGYYAVYHLMNGGYDFAYWTRKKVEAHAQQYSKAVQQGWNSPWKSDFNAMAKKTVLKDLLKYAPKAIEVSQAIGSDSKVSEINDEGEIIDVTDYSQEEEK"
  class.label: "Fulfilled"
- molecule: "SSAP_53: SEQ ID NO: 222 (protein) STALTTLTSQLSQRFKLDGGEELLTTLKQTAFKGQVTDAQMTALLIVANQFGLNPWTKEIYAFPDKNGGIVPVVGVDGWARIINEHPQFDGMDFEMDGEQSCTCVIYRKDRTRPIRITEYMAECKKTGGGPWQSHPRRMLRHKAMIQCARMAFGFGGISDEDDAERIREKDITPQAEVVPKALEPYPADKFEENFEQWKSLIESGRRSADDVIAKIKSRNTMTDEQETRLRACGGEEGKTYENA"
  class.label: "Not fulfilled"
